- System: RAW264.7
- Test method notes: Antiinflammatory activity against mouse RAW264.7 cells assessed as inhibition of LPS-induced nitric oxide production at 10 uM after 24 hrs by Griess assay relative to control
- Format: functional
- Assay context: RAW264.7, 24 h
Quick rule for you: inhibition at 10 µM at 4% or higher means 1, lower means 0.

| Compound | Assigned category |
| --- | --- |
| CC1(C)C=Cc2c(cc(O)c3c2OCC(c2ccc(O)cc2O)C3=O)O1 (centres undefined) | 0 |

Would you say CC(C)=CCc1c(O)ccc2c1O[C@H](c1ccc3c(c1)C=CC(C)(C)O3)CC2=O shows inhibition at 10 µM at minimum 4%? 0

Would you say CC(C)=CCc1cc([C@@H]2CC(=O)c3ccc(O)c(CC=C(C)C)c3O2)ccc1O shows inhibition at 10 µM at minimum 4%? 1

Would you say CC(C)=CCc1cc(C[C@@H](O)C(=O)c2cc(CC=C(C)C)c(O)cc2O)ccc1O shows inhibition at 10 µM at minimum 4%? 0

Would you say CC1(C)C=Cc2c(cc(O)c3c(=O)c(-c4ccc(O)cc4)coc23)O1 shows inhibition at 10 µM at minimum 4%? 0

Would you say CC(C)=CCc1c(O)ccc2c1OC[C@@H](c1ccc3c(c1O)C=CC(C)(C)O3)C2 shows inhibition at 10 µM at minimum 4%? 0
